- testSystem: DCAF15 and RRM2 domain in RBM39 (Homo sapiens (Human), UniProt Q14498+Q66K64)
- Sequence (Q66K64 whole entry, the tested form may be a part): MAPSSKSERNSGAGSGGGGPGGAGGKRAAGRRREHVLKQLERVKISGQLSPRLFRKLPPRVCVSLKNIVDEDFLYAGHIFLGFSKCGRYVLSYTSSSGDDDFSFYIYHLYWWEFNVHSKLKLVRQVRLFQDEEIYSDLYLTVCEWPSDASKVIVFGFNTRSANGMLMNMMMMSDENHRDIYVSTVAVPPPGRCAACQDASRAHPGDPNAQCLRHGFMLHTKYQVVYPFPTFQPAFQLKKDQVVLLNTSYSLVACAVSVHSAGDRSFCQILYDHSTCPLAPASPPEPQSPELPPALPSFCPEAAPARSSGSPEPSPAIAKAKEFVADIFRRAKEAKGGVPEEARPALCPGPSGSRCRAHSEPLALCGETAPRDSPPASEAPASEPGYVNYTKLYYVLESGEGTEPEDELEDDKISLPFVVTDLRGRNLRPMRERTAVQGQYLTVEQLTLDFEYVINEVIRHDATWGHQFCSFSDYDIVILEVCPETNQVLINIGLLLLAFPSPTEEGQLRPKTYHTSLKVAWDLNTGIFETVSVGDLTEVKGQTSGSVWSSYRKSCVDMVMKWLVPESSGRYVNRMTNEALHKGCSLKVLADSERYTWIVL
- Sequence (Q14498 250-328): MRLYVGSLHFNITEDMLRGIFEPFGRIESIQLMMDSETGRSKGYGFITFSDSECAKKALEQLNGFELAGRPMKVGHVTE
- Sequence (Q16531 whole entry partner, the tested form may be a part): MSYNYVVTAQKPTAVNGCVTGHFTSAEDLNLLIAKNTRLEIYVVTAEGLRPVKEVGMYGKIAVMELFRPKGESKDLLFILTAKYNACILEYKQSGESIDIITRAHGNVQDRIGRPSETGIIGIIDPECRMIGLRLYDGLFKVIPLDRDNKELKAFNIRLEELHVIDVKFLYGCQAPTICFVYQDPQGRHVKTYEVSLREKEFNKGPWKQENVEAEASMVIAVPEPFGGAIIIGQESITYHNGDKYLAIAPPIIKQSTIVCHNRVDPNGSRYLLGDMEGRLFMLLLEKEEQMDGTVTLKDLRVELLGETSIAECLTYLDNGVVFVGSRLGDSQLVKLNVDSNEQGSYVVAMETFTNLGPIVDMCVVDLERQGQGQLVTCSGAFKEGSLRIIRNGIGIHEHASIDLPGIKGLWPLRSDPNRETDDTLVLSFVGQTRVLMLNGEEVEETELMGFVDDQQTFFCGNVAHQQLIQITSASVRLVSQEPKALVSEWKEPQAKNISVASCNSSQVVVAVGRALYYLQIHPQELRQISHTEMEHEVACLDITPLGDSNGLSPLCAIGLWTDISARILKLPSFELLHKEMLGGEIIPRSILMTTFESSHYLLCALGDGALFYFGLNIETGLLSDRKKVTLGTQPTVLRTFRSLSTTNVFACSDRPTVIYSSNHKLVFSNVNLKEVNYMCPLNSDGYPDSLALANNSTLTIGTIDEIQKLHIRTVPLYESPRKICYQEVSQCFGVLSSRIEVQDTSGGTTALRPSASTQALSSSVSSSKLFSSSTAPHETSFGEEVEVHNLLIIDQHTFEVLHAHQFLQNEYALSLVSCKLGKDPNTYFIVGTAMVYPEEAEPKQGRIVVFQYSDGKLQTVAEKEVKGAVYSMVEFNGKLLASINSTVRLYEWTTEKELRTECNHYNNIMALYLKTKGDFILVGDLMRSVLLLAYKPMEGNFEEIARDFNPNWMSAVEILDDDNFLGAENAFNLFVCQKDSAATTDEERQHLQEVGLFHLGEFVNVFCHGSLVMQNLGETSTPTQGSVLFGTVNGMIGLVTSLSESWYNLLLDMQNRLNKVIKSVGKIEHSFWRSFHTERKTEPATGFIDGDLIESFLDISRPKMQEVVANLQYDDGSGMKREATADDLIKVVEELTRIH
- assay: TR-FRET biochemical assay, DCAF15 activity (recruitment of RBM39 RRM2 domain to DCAF15)
- conditionParameters: TR-FRET 520/490 nm ratio; biotinylated DCAF15 200 nM, Bodipy-FL RBM39 RRM2 200 nM, Tb-streptavidin 2 nM
- Procedure: Increasing concentrations of compounds were added to pre-mixed biotinylated DCAF15 at 200 nM, Bodipy-FL-labelled RRM2 domain in RBM39 at 200 nM, and terbium (Tb)-coupled streptavidin at 2 nM (Invitrogen) in 384-well microplates in a buffer containing 50 mM Tris pH 7.5, 100 mM NaCl, 0.1% pluronic acid and 2% DMSO. Before TR-FRET measurements were conducted, the reactions were incubated for 15 min at room temperature. […] Data were analyzed with GraphPad Prism 7.
pEC50: −log10 of the molar value.
Can you tell me pEC50 for the items I'm about to list?

Query N#Cc1cccc(S(=O)(=O)Nc2cccc3c(C#N)c[nH]c23)c1 yields pEC50 of < 5.00

Query Cc1ccc(NS(=O)(=O)c2cccc([N+](=O)[O-])c2)c2[nH]cc(C#N)c12 yields pEC50 of 5.00 to 6.00

Query Cc1ccc(NS(=O)(=O)c2cccc(C#N)c2)c2[nH]cc(C=O)c12 yields pEC50 of 5.00 to 6.00

Query N#Cc1cccc(S(=O)(=O)Nc2ccc(-c3ccccc3)c3cc[nH]c23)c1 yields pEC50 of < 5.00

Query Cc1ccc(NS(=O)(=O)c2ccc(F)cc2F)c2[nH]cc(C#N)c12 yields pEC50 of 5.00 to 6.00

Query O=S(=O)(Nc1ncnc2[nH]ccc12)c1ccccc1 yields pEC50 of < 5.00

Query CC(=O)Nc1ccc(C)c2c(C#N)c[nH]c12 yields pEC50 of < 5.00

Query Cc1ccc(NS(=O)(=O)c2ccccc2OC(F)(F)F)c2[nH]cc(C#N)c12 yields pEC50 of < 5.00

Query COCCNc1ccc(S(=O)(=O)Nc2ccc(C)c3c(C#N)c[nH]c23)cc1C#N yields pEC50 of 5.00 to 6.00

Query N#Cc1cccc(S(=O)(=O)Nc2ccc3c(C#N)c[nH]c3c2)c1 yields pEC50 of < 5.00
